Target: PDZ protein (GST-PDZ fusion) (Homo sapiens, UniProt Q9NZN5)
Construct: made in house; host or cells: E. coli (DH5alpha, BL21 or JM109)
Sequence (Q9NZN5 whole entry, the tested form may be a part): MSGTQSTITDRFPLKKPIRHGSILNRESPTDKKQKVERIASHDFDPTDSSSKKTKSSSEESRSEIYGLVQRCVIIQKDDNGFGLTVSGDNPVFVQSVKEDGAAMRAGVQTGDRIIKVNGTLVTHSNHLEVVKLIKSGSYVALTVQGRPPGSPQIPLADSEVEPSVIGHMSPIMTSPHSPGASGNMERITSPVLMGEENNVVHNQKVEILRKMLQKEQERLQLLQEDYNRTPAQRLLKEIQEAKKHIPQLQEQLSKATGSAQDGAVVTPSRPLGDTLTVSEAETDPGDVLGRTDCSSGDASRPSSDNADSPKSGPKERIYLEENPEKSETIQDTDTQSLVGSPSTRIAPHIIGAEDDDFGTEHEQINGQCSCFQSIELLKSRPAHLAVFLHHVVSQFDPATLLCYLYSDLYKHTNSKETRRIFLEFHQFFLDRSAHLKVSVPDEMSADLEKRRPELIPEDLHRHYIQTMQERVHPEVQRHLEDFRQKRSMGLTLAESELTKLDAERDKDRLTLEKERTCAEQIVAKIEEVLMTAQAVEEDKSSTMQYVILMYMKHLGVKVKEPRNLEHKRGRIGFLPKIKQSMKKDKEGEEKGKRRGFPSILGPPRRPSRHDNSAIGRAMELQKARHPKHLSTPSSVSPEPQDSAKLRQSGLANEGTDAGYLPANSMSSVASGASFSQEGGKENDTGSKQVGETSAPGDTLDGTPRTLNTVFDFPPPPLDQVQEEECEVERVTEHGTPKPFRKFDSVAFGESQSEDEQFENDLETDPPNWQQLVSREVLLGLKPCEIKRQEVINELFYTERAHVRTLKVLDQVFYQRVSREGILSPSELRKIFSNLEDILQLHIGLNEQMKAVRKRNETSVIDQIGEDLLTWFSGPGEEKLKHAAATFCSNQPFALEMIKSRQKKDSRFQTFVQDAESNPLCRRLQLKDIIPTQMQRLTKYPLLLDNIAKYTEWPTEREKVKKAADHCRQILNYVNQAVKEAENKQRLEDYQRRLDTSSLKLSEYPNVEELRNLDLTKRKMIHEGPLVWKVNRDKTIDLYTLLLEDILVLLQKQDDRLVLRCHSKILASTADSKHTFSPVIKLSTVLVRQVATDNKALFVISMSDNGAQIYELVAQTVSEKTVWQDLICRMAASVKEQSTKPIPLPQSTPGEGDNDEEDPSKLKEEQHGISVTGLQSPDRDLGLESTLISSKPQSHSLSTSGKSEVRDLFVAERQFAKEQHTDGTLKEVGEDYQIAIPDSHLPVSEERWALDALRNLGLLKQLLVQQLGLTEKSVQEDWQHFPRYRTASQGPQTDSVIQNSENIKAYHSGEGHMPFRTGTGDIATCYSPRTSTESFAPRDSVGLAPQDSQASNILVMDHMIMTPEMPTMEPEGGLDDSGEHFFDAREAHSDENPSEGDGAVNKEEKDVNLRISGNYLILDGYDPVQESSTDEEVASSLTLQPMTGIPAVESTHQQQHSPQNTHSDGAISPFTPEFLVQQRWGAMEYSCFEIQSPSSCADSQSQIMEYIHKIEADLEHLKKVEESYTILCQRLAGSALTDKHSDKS
Assay: G' assay (10 uM PL peptide), results of TABLE 7 and TABLE 12
Assay type: binding
Details: PDZ KIAA0382, PDZ Domain 1
Ends that are not written are not given here. * marks the point of attachment. Biotin = O=C1N[C@H]2[C@H](CS[C@H]2CCCCC(=O)*)N1
Measured Classification by item

Completed entries (count: 8):
• LNETTETQRTLLNGDLQTSI (Biotin-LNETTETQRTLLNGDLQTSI) [SSTR2 (somatostatin recepor 2)] = 1 (A450 nm 0-1)
• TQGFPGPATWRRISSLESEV = 1 (A450 nm 0-1)
• KTMPAAMFRLLTGQETPLYI (Biotin-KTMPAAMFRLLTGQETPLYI) [MINT-2] = 1 (A450 nm 0-1)
• KDSRPSFVGSSSGHTSTTL (Biotin-KDSRPSFVGSSSGHTSTTL) [CDw128B] = 2 (A450 nm 1-2)
• RIAYSLLGLKDQVNTVGIPI (Biotin-RIAYSLLGLKDQVNTVGIPI) [ephrin A2] = 1 (A450 nm 0-1)
• APC—adenomatous polyposis coli protein (ESSGTQSPKRHSGSYLVTSV) = 1 (A450 nm 0-1)
• LASKSAEEGKQIPDSLSTDL (Biotin-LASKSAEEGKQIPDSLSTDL) [Dock2] = 1 (A450 nm 0-1)
• VHDAESSDEDGYDWGPATDL (Biotin-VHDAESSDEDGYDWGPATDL) [zona occludens 3 (ZO-3)] = 2 (A450 nm 1-2)

// Classification lookup, key: QATSRNGHSARQHVVADTEL (Biotin-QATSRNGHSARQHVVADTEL) [CD34]
1 (A450 nm 0-1)
